molecular target: human recombinant serotonin (5-Hydroxytryptamine) 5-HT2C receptor (Homo sapiens, UniProt P28335); construct: expressed in transfected cells; host or cells: CHO-K1; assay: Serotonin 5-HT2C radioligand binding ([3H]Mesulergine); conditions: compound at 0.1 μM; read-out: Inhibition of ligand binding, Serotonin 5-HT2C (percent inhibition of specific binding)
Sequence (P28335 33-458): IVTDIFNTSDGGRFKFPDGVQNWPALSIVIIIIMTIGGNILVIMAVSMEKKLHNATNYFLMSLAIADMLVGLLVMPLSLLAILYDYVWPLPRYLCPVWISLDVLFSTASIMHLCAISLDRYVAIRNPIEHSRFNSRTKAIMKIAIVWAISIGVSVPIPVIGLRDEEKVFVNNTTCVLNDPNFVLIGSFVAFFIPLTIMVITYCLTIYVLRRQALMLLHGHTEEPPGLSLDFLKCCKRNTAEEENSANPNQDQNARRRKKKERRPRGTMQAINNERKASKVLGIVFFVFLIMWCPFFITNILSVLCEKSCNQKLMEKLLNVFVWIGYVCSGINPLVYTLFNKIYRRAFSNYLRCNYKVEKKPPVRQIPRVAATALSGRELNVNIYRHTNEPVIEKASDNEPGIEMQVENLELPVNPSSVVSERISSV
experimental_readout: inhibition at 0.1 µM
Remember to put the unit after the number in your answer.

Completed entries (count: 2):
Cc1ccc2c(c1)c1c(n2-c2cccc(-c3ccc(C)s3)c2)CCN(C)C1 [Compound No. 64]
83%
CN1CCc2c(c3cc(Cl)ccc3n2-c2cscc2-c2ccc(F)cc2)C1 [Compound 25]
91%

Next:
Task: Request the reported inhibition at 0.1 µM associated with Cc1ccc2c(c1)c1c(n2-c2ccc(-c3cccc4[nH]ncc34)cn2)CCN(C)C1 [Compound No. 147]
Result: 69%

====

biological target: human recombinant serotonin (5-Hydroxytryptamine) 5-HT2A receptor (Homo sapiens); construct: expressed in transfected cells; host or cells: CHO-K1; test: Serotonin 5-HT2A radioligand binding ([3H]Ketanserin); conditions: compound at 0.1 μM; read-out: Inhibition of ligand binding, Serotonin 5-HT2A (percent inhibition of specific binding)
Sequence (P28223 whole entry): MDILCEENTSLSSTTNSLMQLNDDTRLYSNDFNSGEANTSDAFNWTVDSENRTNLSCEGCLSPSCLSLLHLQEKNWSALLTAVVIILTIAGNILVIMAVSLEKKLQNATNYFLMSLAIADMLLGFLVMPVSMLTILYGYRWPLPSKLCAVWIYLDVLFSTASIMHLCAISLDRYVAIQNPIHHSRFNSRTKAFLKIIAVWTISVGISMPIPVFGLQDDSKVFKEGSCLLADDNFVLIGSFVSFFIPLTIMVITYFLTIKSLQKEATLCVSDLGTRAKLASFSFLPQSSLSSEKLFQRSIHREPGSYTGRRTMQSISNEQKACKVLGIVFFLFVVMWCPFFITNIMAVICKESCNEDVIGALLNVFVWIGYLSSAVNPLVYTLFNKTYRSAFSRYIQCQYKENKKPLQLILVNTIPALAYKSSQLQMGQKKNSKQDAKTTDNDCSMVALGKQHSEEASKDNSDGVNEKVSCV
The entries below are paired with their reported inhibition at 0.1 µM.
State just the number; it will be interpreted in %.

Completed entries (count: 3):
Cc1ccc2c(c1)c1c(n2-c2cscc2-c2ccc(F)nc2)CCN(C)C1 [Compound 35]
82
Cc1ccc2c(c1)c1c(n2-c2ccc(-c3cccc4ccccc34)cn2)CCN(C)C1 [Compound No. 141]
61
Cc1ccc2c(c1)c1c(n2-c2cscc2-c2ccncc2)CCN(C)C1 [Compound 20]
78

Task: Request the reported inhibition at 0.1 µM associated with COc1ccc(-c2cscc2-n2c3c(c4cc(C)ccc42)CN(C)CC3)cc1 [Compound 37]
Result: 59

Task: Request the reported inhibition at 0.1 µM associated with Cc1ccc2c(c1)c1c(n2-c2ccccc2-c2ccnn2C)CCN(C)C1 [Compound 32]
Result: 59

====

biological target: rat adrenergic α1A receptor (Rattus norvegicus); construct: rat adrenergic α1A receptor obtained from Wistar Rat submaxillary glands; from tissue; host or cells: Wistar rat submaxillary glands; assay: Adrenergic α1A radioligand binding ([3H]Prazosin); details: read-out: Adrenergic (0.1 μM) a1A, percent inhibition of specific binding; compound at 0.1 μM; 0.25 nM [3H]Prazosin
The entries below are paired with their reported inhibition at 0.1 µM.
State just the number; it will be interpreted in %.

Cc1ccc2c(c1)c1c(n2-c2ccc3ccncc3c2)CCN(C)C1
52

Next:
Task: Value wanted: inhibition at 0.1 µM (rat adrenergic α1A receptor (Rattus norvegicus)) of entry Cc1ccc2c(c1)c1c(n2-c2ccccc2-c2ccc(F)nc2)CCN(C)C1
Result: 61

====

molecular target: human recombinant serotonin (5-Hydroxytryptamine) 5-HT7 receptor (Homo sapiens); construct: expressed in transfected cells; host or cells: CHO; experiment: Serotonin 5-HT7 radioligand binding ([3H]LSD); details: compound at 0.1 μM; read-out: Inhibition of ligand binding, Serotonin 5-HT7 (percent inhibition of specific binding)
Sequence (P34969 whole entry): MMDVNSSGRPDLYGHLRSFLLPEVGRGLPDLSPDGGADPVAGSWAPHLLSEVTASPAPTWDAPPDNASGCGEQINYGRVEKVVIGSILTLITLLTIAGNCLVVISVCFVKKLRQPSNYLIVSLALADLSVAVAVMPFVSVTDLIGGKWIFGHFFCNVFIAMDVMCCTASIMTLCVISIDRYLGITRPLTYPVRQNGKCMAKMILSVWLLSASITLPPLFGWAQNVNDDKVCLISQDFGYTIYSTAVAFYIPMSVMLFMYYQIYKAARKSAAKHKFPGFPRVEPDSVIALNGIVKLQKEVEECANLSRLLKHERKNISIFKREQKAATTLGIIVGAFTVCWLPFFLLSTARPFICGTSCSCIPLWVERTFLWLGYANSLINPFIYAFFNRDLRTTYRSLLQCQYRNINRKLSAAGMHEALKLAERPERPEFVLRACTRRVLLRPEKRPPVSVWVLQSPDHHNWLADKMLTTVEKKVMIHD
Classify by measured inhibition at 0.1 µM: true if it is equal to or exceeds 30%, false if it is smaller.

Answered cases to consult:
Cc1ccc2c(c1)c1c(n2-c2cscc2-c2ccccc2)CCN(C)C1 [Compound 21]
true
Cc1ccc2c(c1)c1c(n2-c2cccc(-c3ccc(F)nc3)c2)CCN(C)C1 [Compound 44]
true
Cc1ccc2c(c1)c1c(n2-c2ccccc2-c2cn[nH]c2)CCN(C)C1 [Compound No. 104]
false

Task: Has Cc1ccc2c(c1)c1c(n2-c2ccc(-c3cccc4ccccc34)cn2)CCN(C)C1 [Compound No. 141] a recorded inhibition at 0.1 µM greater than or equal to 30%?
Result: true

Task: Has Cc1ccc2c(c1)c1c(n2-c2ccccc2-c2ccc(F)nc2)CCN(C)C1 [Compound No. 84] a recorded inhibition at 0.1 µM greater than or equal to 30%?
Result: false

Task: Has Cc1ccc2c(c1)c1c(n2-c2ccc(-c3cncc4ccccc34)cn2)CCN(C)C1 [Compound No. 135] a recorded inhibition at 0.1 µM greater than or equal to 30%?
Result: false

Task: Has Cc1ccc2c(c1)c1c(n2-c2ccccc2-c2cnn(C)c2)CCN(C)C1 [Compound No. 86] a recorded inhibition at 0.1 µM greater than or equal to 30%?
Result: true

Task: Has Cc1ccc2c(c1)c1c(n2-c2cscc2-c2cccc3[nH]ncc23)CCN(C)C1 [Compound 41] a recorded inhibition at 0.1 µM greater than or equal to 30%?
Result: true

Task: Has Cc1ccc2c(c1)c1c(n2-c2cccc(-c3ccc(C)nc3)c2)CCN(C)C1 [Compound 60] a recorded inhibition at 0.1 µM greater than or equal to 30%?
Result: true

Task: Has Cc1ccc2c(c1)c1c(n2-c2ncccc2-c2ccncc2)CCN(C)C1 [Compound No. 161] a recorded inhibition at 0.1 µM greater than or equal to 30%?
Result: false

Task: Has CNC(=O)c1ccc(-c2cscc2-n2c3c(c4cc(C)ccc42)CN(C)CC3)cc1 [Compound No. 155] a recorded inhibition at 0.1 µM greater than or equal to 30%?
Result: true

Task: Has Cc1ccc2c(c1)c1c(n2-c2cscn2)CCN(C)C1 [Compound 19] a recorded inhibition at 0.1 µM greater than or equal to 30%?
Result: true

Task: Has Cc1ccc2c(c1)c1c(n2-c2cscc2-c2cccnc2)CCN(C)C1 [Compound 22] a recorded inhibition at 0.1 µM greater than or equal to 30%?
Result: true

====

The entries below are paired with their reported inhibition at 0.1 µM.
target: human recombinant serotonin (5-Hydroxytryptamine) 5-HT6 receptor (Homo sapiens); construct: expressed in transfected cells; host or cells: HeLa; experiment: Serotonin 5-HT6 radioligand binding ([3H]LSD); conditions: compound at 0.1 μM; read-out: Inhibition of ligand binding, Serotonin 5-HT6 (percent inhibition of specific binding)
Sequence (P50406 whole entry): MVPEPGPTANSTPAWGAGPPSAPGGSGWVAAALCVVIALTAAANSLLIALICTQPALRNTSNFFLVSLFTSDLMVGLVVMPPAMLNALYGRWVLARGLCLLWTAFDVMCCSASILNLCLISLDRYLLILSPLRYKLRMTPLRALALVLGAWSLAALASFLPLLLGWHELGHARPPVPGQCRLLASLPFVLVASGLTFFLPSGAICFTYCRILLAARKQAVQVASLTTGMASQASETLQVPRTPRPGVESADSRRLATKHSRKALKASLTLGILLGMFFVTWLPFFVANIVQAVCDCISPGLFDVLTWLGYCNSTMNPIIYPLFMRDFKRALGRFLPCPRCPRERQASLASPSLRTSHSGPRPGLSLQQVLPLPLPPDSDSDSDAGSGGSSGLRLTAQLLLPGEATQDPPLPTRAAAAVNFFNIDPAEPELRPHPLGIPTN
State just the number; it will be interpreted in %.

Completed entries (count: 4):
Cc1ccc2c(c1)c1c(n2-c2cscc2-c2ccc(C)s2)CCN(C)C1
50
CNC(=O)c1ccc(-c2cscc2-n2c3c(c4cc(C)ccc42)CN(C)CC3)cc1
-6
Cc1ccc2c(c1)c1c(n2-c2ccccc2-c2cccnc2)CCN(C)C1
14
Cc1ccc2c(c1)c1c(n2-c2ccc(-c3cnn(C)c3)cn2)CCN(C)C1
-2

Task: Request the reported inhibition at 0.1 µM associated with Cc1ccc2c(c1)c1c(n2-c2cccc(-c3sccc3C)c2)CCN(C)C1
Result: 28

====

Target: rat adrenergic α1A receptor (Rattus norvegicus, UniProt P43140)
Construct: rat adrenergic α1A receptor obtained from Wistar Rat submaxillary glands; from tissue; host or cells: Wistar rat submaxillary glands
Sequence (P43140 1-466): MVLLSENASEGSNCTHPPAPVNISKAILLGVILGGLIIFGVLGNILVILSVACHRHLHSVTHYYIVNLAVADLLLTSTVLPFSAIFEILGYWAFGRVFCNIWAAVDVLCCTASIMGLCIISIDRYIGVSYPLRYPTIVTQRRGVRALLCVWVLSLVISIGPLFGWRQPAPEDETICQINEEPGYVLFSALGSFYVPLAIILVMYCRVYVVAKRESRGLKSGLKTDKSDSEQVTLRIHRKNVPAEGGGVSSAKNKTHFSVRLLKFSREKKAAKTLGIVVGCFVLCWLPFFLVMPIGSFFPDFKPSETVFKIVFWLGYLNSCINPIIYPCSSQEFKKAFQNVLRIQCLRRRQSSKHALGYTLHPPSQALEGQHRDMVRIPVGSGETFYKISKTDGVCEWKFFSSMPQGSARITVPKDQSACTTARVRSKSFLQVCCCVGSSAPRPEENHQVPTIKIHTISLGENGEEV
Assay: Adrenergic α1A radioligand binding ([3H]Prazosin)
Details: read-out: Adrenergic (0.1 μM) a1A, percent inhibition of specific binding; compound at 0.1 μM; 0.25 nM [3H]Prazosin
The entries below are paired with their reported inhibition at 0.1 µM.
State just the number; it will be interpreted in %.

Completed entries (count: 4):
Cc1ccc2c(c1)c1c(n2-c2ccc3c(c2)CCN(C=O)C3)CCN(C)C1
20
Cc1ccc2c(c1)c1c(n2-c2cccc(-c3cnn(C)c3)c2)CCN(C)C1
16
Cc1ccc2c(c1)c1c(n2-c2cscc2-c2ccnn2C)CCN(C)C1
36
Cc1ccc2c(c1)c1c(n2-c2ccccc2-c2cncc3ccccc23)CCN(C)C1
8

Next:
Task: Value wanted: inhibition at 0.1 µM (rat adrenergic α1A receptor (Rattus norvegicus, UniProt P43140)) of entry Cc1csc(-c2ccccc2-n2c3c(c4cc(C)ccc42)CN(C)CC3)c1
Result: -6

====

biological target: human recombinant serotonin (5-Hydroxytryptamine) 5-HT7 receptor (Homo sapiens); construct: expressed in transfected cells; host or cells: CHO; experiment: Serotonin 5-HT7 radioligand binding ([3H]LSD); conditions: compound at 0.1 μM; read-out: Inhibition of ligand binding, Serotonin 5-HT7 (percent inhibition of specific binding)
Classify by measured inhibition at 0.1 µM: Satisfied if it is equal to or exceeds 20%, Not satisfied if it is smaller.

Answered cases to consult:
Cc1ccc2c(c1)c1c(n2-c2ccc3ccncc3c2)CCN(C)C1
Not satisfied
Cc1ccc2c(c1)c1c(n2-c2cscc2-c2ccc3cnccc3c2)CCN(C)C1
Satisfied
CNC(=O)c1cc(-n2c3c(c4cc(C)ccc42)CN(C)CC3)cs1
Satisfied

Task: Has Cc1ccc2c(c1)c1c(n2-c2ccccc2-c2cnccc2C)CCN(C)C1 a recorded inhibition at 0.1 µM greater than or equal to 20%?
Result: Not satisfied

Task: Has CC(=O)Nc1ccc(-c2ccc(-n3c4c(c5cc(C)ccc53)CN(C)CC4)nc2)cn1 a recorded inhibition at 0.1 µM greater than or equal to 20%?
Result: Not satisfied

Task: Has Cc1ccc2c(c1)c1c(n2-c2ccc(C)nc2)CCN(C)C1 a recorded inhibition at 0.1 µM greater than or equal to 20%?
Result: Not satisfied
